# systemUnderTest: Sodium-dependent dopamine transporter (Rattus norvegicus)
# Sequence (P23977 whole entry): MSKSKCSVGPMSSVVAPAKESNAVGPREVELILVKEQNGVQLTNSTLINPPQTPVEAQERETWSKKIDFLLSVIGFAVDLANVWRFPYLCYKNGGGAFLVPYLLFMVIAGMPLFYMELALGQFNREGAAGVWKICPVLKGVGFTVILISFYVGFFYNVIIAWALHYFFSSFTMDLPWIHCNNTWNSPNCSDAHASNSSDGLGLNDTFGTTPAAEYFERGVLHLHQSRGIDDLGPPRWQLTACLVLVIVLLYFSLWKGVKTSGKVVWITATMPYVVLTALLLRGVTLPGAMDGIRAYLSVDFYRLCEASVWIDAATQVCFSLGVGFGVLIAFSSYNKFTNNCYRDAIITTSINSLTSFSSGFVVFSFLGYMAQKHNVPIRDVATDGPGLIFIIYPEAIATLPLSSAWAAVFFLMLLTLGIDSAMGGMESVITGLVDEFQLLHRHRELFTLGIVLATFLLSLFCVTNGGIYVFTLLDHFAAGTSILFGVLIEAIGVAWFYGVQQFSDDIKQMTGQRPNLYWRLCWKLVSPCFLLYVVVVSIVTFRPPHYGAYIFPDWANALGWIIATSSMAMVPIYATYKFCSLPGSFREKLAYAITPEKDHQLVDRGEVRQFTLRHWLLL
readoutName: pKi
Units for pKi: none; it is -log10 of a concentration expressed in mol/L.

Reported Sodium-dependent dopamine transporter (Rattus norvegicus) pKi for item COC(=O)[C@H]1[C@@H](c2ccc(C)cc2)C[C@@H]2CC[C@H]1N2C/C=C/I was 7.74
